Test system: phospho-ERK in MIA PaCa2 or H358 cells
Experiment: Phospho-ERK assay (AlphaLisa)
Assay type: cell-based
Conditions: 1.5 h, MIA PaCa2 or H358 cells, compound incubated 1.5 hours; read-out: IC50 (p-ERK)
// values below are reported IC50

# return recorded IC50 for entry N[C@@H]1c2cccnc2CC12CCN(c1cnc(Sc3ccc4ncn(Cc5ccncn5)c(=O)c4c3Cl)cn1)CC2 [Example 141]
< 45 nM

---

IC50 for assorted molecules
Test system: phospho-ERK in MIA PaCa2 or H358 cells
Assay: Phospho-ERK assay (AlphaLisa)
Assay type: cell-based
Details: 1.5 h, MIA PaCa2 or H358 cells, compound incubated 1.5 hours; read-out: IC50 (p-ERK)

// solved cases for IC50 follow
smilesEntry	IC50
COCCCn1cnc2ccc(Sc3cnc(N4CCC5(CC4)CO[C@@H](C)[C@H]5N)cn3)c(Cl)c2c1=O	> 1500 nM
COc1ccc(Cn2cnc3ccc(Sc4cnc(N5CCC6(CC5)CO[C@@H](C)[C@H]6N)cn4)c(Cl)c3c2=O)cc1F	< 45 nM
C[C@@H]1OCC2(CCN(c3cnc(Sc4ccc5ncn(CC(N)=O)c(=O)c5c4Cl)cn3)CC2)[C@@H]1N	< 45 nM

Moving on to another molecule below.
Look up and report measured IC50 for this entry: `C[C@@H]1OCC2(CCN(c3cnc(Sc4ccc5ncn(Cc6ccc(N)nc6)c(=O)c5c4Cl)cn3)CC2)[C@@H]1N`
< 45 nM
